src = ChEMBL document CHEMBL6087416

assay-summary: in vitro
condition-details: human, MT4 cells
Description: Selectivity index, ratio of CC50 for human MT4 cells to EC50 for wild type HIV-1 IIIB infected in human MT4 cells
Param threshold (1000) applies to selectivity ratio; output True when value >= threshold, False when value < threshold.

Some solved cases for reference:
Cc1cc(/C=C/C#N)cc(C)c1Oc1ccnc(Nc2ccc3ncsc3c2)n1: True
Cc1cc(/C=C/C#N)cc(C)c1Oc1ccnc(Nc2ccc3c(c2)CN(C)C3=O)n1: True
Cc1cc(/C=C/C#N)cc(C)c1Oc1ccnc(Nc2ccc3nncn3c2)n1: True
Cc1cc(/C=C/C#N)cc(C)c1Oc1ccnc(Nc2ccc3c(c2)CN(CC#N)CC3)n1: False

Shifting focus to the compound that follows.
For this compound, is measured selectivity ratio 1000 or higher? Cc1cc(/C=C/C#N)cc(C)c1Oc1ccnc(Nc2ccc3oncc3c2)n1
True

###

Test system: Human immunodeficiency virus 1
assay-summary: Antiviral activity against NNRTI-resistant HIV-1 harboring RT K103N mutant infected in human MT4 cells assessed as protection against virus-induced cytopathic effect incubated for 5 days by MTT assay
Format: functional, organism-based
condition-details: Human immunodeficiency virus 1, MT4, 120 h
measured-parameter: EC50
Kindly write the number and append the unit.

// worked examples, EC50 included
Cc1ccnc2c1NC(=O)c1cccnc1N2C1CC1: 5220 nM
Cc1cc(/C=C/C#N)cc(C)c1Oc1ccnc(Nc2ccc3scnc3c2)n1: 6 nM
Cc1cc(/C=C/C#N)cc(C)c1Oc1ccnc(Nc2ccc3c(c2)NC(=O)C3)n1: 4 nM
Cc1cc(/C=C/C#N)cc(C)c1Oc1ccnc(Nc2ccc3c(c2)COC3)n1: 6 nM

We now examine a further molecule.
Recorded EC50 of Cc1cc(/C=C/C#N)cc(C)c1Oc1ccnc(Nc2ccc3nccn3c2)n1 , please.
8 nM

###

assay-summary: in vitro
condition-details: human, MT4 cells
Description: Selectivity index, ratio of CC50 for human MT4 cells to EC50 for HIV-1 RES056 harboring RT K103N/Y181C mutant infected in human MT4 cells
measured-parameter: selectivity ratio
Answer with the value's number alone.

// worked examples, selectivity ratio included
Cc1cc(/C=C/C#N)cc(C)c1Oc1ccnc(Nc2ccc3occc3c2)n1: 25
Cc1cc(/C=C/C#N)cc(C)c1Oc1ccnc(Nc2ccc3nsnc3c2)n1: 37
Cc1cc(/C=C/C#N)cc(C)c1Oc1ccnc(Nc2ccc3cnsc3c2)n1: 22
Cc1cc(/C=C/C#N)cc(C)c1Oc1ccnc(Nc2ccc3ncsc3c2)n1: 16
Cc1cc(/C=C/C#N)cc(C)c1Oc1ccnc(Nc2ccc3c(c2)OCO3)n1: 18

Recorded selectivity ratio of Cc1cc(/C=C/C#N)cc(C)c1Oc1ccnc(Nc2ccc(N3CCN(S(C)(=O)=O)CC3)c(C#N)c2)n1 , please.
110

How about Cc1cc(/C=C/C#N)cc(C)c1Oc1ccnc(Nc2ccc3c(c2)COC3)n1 ?
573

How about Cc1cc(/C=C/C#N)cc(C)c1Oc1ccnc(Nc2ccc3nccn3c2)n1 ?
20

How about Cc1cc(/C=C/C#N)cc(C)c1Oc1ccnc(Nc2ccc3c(c2)C(=O)NCC3)n1 ?
2

How about Cc1cc(/C=C/C#N)cc(C)c1Oc1ccnc(Nc2ccc3c(c2)CN(S(N)(=O)=O)CC3)n1 ?
2

###

// values below are reported CC50 at 120 h
assay-summary: Cytotoxicity against human MT4 cells assessed as reduction in cell viability measured after 5 days by MTT assay
Type: toxicity, cell-based
condition-details: time 5 day
Report the value in µM with no unit label.

// worked examples, CC50 at 120 h included
Cc1cc(/C=C/C#N)cc(C)c1Oc1ccnc(Nc2ccc3occc3c2)n1: 216
Cc1cc(/C=C/C#N)cc(C)c1Oc1ccnc(Nc2ccc3c(c2)OC(F)(F)O3)n1: 19.2
Cc1cc(/C=C/C#N)cc(C)c1Oc1ccnc(Nc2ccc3c(c2)OCCO3)n1: 12.1
Cc1nc2cc(Nc3nccc(Oc4c(C)cc(/C=C/C#N)cc4C)n3)ccc2o1: 1
Cc1cc(/C=C/C#N)cc(C)c1Oc1ccnc(Nc2ccc3c(c2)CN(S(N)(=O)=O)CC3)n1: 11.6
Cc1cc(/C=C/C#N)cc(C)c1Oc1ccnc(Nc2ccc3c(c2)C(=O)NCC3)n1: 3.19
Cc1cc(/C=C/C#N)cc(C)c1Oc1ccnc(Nc2ccc3nsnc3c2)n1: 20.6

We now examine a further compound.
Recorded CC50 at 120 h of Cc1cc(/C=C/C#N)cc(C)c1Oc1ccnc(Nc2ccc3c(C(F)(F)F)cc(=O)oc3c2)n1 , please.
185
